The measurements presented in this section are drawn from PubChem BioAssay (NCI).

System: HCC-2998 colon
procedure_text: NCI-60 one-dose screen, 48 h
stated_conditions: 10 µM unless noted
This is part of a sample that, as a whole, favours compounds with a hit. Of some 83,000 tested, about 20% had one in any assay. The source made the active and inactive calls. Rule for the calls: active = growth percent below 10; inactive = the rest.
Would you mind answering with one of these outcomes? 1.0 = active, 0.0 = inactive

[
  {
    "compound": "Cc1ccc(C2CC(c3ccc(S(=O)(=O)NCCNc4nc(Nc5ccc(F)cc5)nc(N(C)C)n4)cc3)=Nc3c(N)nc(N)nc3N2)cc1 (centres undefined)",
    "target_system": "HCC-2998 colon",
    "class_label": 0.0
  }
]

What is the recorded call for this compound in the test? `CN1CCN(c2ccc(C(=O)/C=C/c3cc(C(F)(F)F)cc(C(F)(F)F)c3)cc2)CC1`
1.0

What is the recorded call for this compound in the test? `COc1ccc(/C=C/c2n(Cc3ccc4ccccc4c3)c3ccccc3[n+]2Cc2ccc3ccccc3c2)cc1`
1.0

What is the recorded call for this compound in the test? `CC(C)c1ccc2c(N)c(C(=O)Nc3ccc(C(F)(F)F)cn3)sc2n1`
0.0

###

System: MOLT-4 leukemia
procedure_text: NCI-60 one-dose screen, 48 h (100 = growth as untreated, 0 = no growth, -100 = all killed)
stated_conditions: 10 µM unless noted
The panel holds about 83,000 compounds, 20% with a hit somewhere; the sample as a whole holds those more often.
# Lookup of reported growth keyed by entry
Just the number please, in %, no unit attached.

[
  {
    "compound": "CCCSc1nc(NCCc2c[nH]c3ccccc23)c(C#N)c(-c2ccccc2)n1",
    "quantitative_readout": 44.7
  }
]

Identify measured growth corresponding to C=C1CC[C@@H]2[C@]3(C)COC(c4cn[nH]c4-c4ccc(OC)cc4)O[C@@H]3CC[C@@]2(C)[C@@H]1C/C=C1/C(=O)OCC1O (some centres undefined)
8.3

Identify measured growth corresponding to `CCCCCCCCc1ccc(C(=O)Nc2cccc(P(=O)(O)O)c2)cc1`
98.6

Identify measured growth corresponding to `CC(=O)Nc1cccc(Nc2nccc(N[C@@H](C)c3ccccc3)n2)c1`
20.5

Identify measured growth corresponding to `C=CC(=O)Nc1ccc(C)c(Oc2ccc(Cl)cc2)c1`
45.3

Identify measured growth corresponding to C=C1CC[C@@H]2[C@]3(C)COC(c4ccco4)O[C@@H]3CC[C@@]2(C)[C@@H]1C/C=C1/C(=O)OCC1OC(C)=O (some centres undefined)
2.43

Identify measured growth corresponding to Cc1ccc(NC(=O)[C@]23CCC(C)(C)CC2C2=CCC4[C@@]5(C)C[C@@H](O)[C@H](O)[C@@](C)(CO)C5CC[C@@]4(C)[C@]2(C)CC3)cc1 (some centres undefined)
0.258

Identify measured growth corresponding to `CCN(CC)C(=O)N/C(N)=N/c1nc2ccccc2s1`
-4.3

Identify measured growth corresponding to COC(OC)C1=C(C)OC(N)=C(C#N)C12C(=O)Nc1ccccc12 (centres undefined)
95.9

###

Test system: OVCAR-8 ovarian
procedure_text: NCI-60 one-dose screen, 48 h
stated_conditions: 10 µM unless noted
Method: Growth inhibition of the OVCAR-8 human tumor cell line is measured as a screen for anti-cancer activity. Cells are grown in 96 well plates and exposed to the test compound for 48 hours. Compounds are tested at a single concentration, which is 10^-5 M for most compounds. The reported endpoint is percent growth (GI% or GIPRCNT), where numbers from 0 - 100% represent growth inhibition, and numbers from -100% - 0 represent cell death. For example, a value of 40 represents 60% growth inhibition. […]
The panel holds about 83,000 compounds, 20% with a hit somewhere; the sample as a whole holds those more often. Activity calls are given as the source filed them. How the source made its calls: active means growth percent below 10; inactive means the rest.
Would you mind answering with one of these outcomes? true (1) = active, false (0) = inactive

Worked examples follow.
[
  {
    "compound": "Cc1occc1C(=O)NN1C(=O)/C(=C/C=C/c2ccc([N+](=O)[O-])o2)SC1=S",
    "target_system": "OVCAR-8 ovarian",
    "class_label": "true (1)"
  },
  {
    "compound": "CSc1ccccc1NC(=O)c1ccc2nn(/C(C#N)=C/c3ccccn3)nc2c1",
    "target_system": "OVCAR-8 ovarian",
    "class_label": "true (1)"
  },
  {
    "compound": "O=C(Cn1c(/C=C/c2ccccc2)nc2ccccc2c1=O)Nc1ccc(Cl)cc1",
    "target_system": "OVCAR-8 ovarian",
    "class_label": "false (0)"
  },
  {
    "compound": "CC(C)c1ccc2c(N)c(C(=O)Nc3cccc(C(F)(F)F)c3)sc2n1",
    "target_system": "OVCAR-8 ovarian",
    "class_label": "false (0)"
  },
  {
    "compound": "C=C1CCC2C3(C)COC(c4cccc(F)c4)OC3CCC2(C)C1C/C=C1/C(=O)OCC1O (centres undefined)",
    "target_system": "OVCAR-8 ovarian",
    "class_label": "true (1)"
  },
  {
    "compound": "CC1[C@H]2[C@H](C[C@H]3[C@@H]4CC=C5c6sc(Nc7ccccc7F)nc6CC[C@]5(C)[C@H]4CC[C@@]32C)O[C@]12CC[C@@H](C)CO2 (some centres undefined)",
    "target_system": "OVCAR-8 ovarian",
    "class_label": "true (1)"
  },
  {
    "compound": "CN1CCN(c2ccc(C(=O)/C=C/c3cc(C(F)(F)F)cc(C(F)(F)F)c3)cc2)CC1",
    "target_system": "OVCAR-8 ovarian",
    "class_label": "true (1)"
  },
  {
    "compound": "COc1cc(-c2ccc(/C=N/NC(=O)c3[nH]c4ccc(Br)cc4c3-c3ccccc3)o2)cc(OC)c1OC",
    "target_system": "OVCAR-8 ovarian",
    "class_label": "false (0)"
  }
]

What is the recorded call for this compound in the test? CCOC(=O)C1=C(N)N(c2ccccc2)C2=C(C(=O)CC(C)(C)C2)C1c1cccc(Cl)c1Cl (centres undefined)
false (0)

###

# Lookup of reported growth keyed by entry
System: UO-31 renal
procedure_text: NCI-60 one-dose screen, 48 h (100 = growth as untreated, 0 = no growth, -100 = all killed)
stated_conditions: 10 µM unless noted
About 83,000 compounds went through this panel and 20% of them were active in at least one assay; those are over-represented in the sample as a whole.
Just the number please, in %, no unit attached.

Sample answers from the record:
[
  {
    "molecule": "CC12CC[C@@H]3[C@]4(C)COC(c5cn[nH]c5-c5ccc(Cl)cc5)O[C@@H]4CC[C@@]3(C)[C@@H]1CC(C1=CCOC1=O)O2 (some centres undefined)",
    "target_system": "UO-31 renal",
    "quantitative_readout": 21
  },
  {
    "molecule": "Cn1cc(-c2cc3nc(-c4cn(C)c5ncc(Br)cc45)cc(N)n3n2)c2cc(Cl)ccc21",
    "target_system": "UO-31 renal",
    "quantitative_readout": -87.8
  },
  {
    "molecule": "Cn1cc(-c2cc(N)n3nc(-c4cn(C)c5ccccc45)cc3n2)c2cc(Br)ccc21",
    "target_system": "UO-31 renal",
    "quantitative_readout": -84.2
  }
]

Under UO-31 renal, report growth for `Nc1nnc(-c2c[nH]c3ccc(Br)cc23)c(-c2c[nH]c3ncc(Br)cc23)n1`
42.1

Under UO-31 renal, report growth for `COc1cc(/C=C/C(=O)c2ccc(C)cc2)ccc1Oc1nc(Nc2ccc(F)cc2)nc(N(C)C)n1`
36.2

Under UO-31 renal, report growth for CC1=C(C(=O)c2ccccc2)C(c2cccc3ccccc23)n2c(nc3ccccc32)N1 (centres undefined)
81.8

Under UO-31 renal, report growth for `CC(=O)Oc1ccccc1C(=O)[Se]C(=NC1CCCCC1)NC1CCCCC1`
-100

Under UO-31 renal, report growth for `CN1CCN(c2ccc(C(=O)/C=C/c3ccc(Br)cc3)cc2)CC1`
18.8

Under UO-31 renal, report growth for `O=C(NNc1ccccc1)n1c(=O)c2ccccc2c(=O)n1-c1ccccc1`
81.5

###

Test system: ACHN renal
procedure_text: NCI-60 one-dose screen, 48 h
stated_conditions: 10 µM unless noted
About 83,000 compounds went through this panel and 20% of them were active in at least one assay; those are over-represented in the sample as a whole. Calls of active or inactive are those of the source. How the source made its calls: active means growth percent below 10; inactive means the rest.
Would you mind answering with one of these outcomes? 1 (yes) for active, 0 (no) for inactive

Worked examples follow.
[
  {
    "molecule": "Cc1cc(C)cc(NC(=O)Cn2cc(COn3nnc4ccccc43)nn2)c1",
    "class_label": "0 (no)"
  },
  {
    "molecule": "Cc1ccc(C2=NN(c3nc(-c4cc5ccccc5oc4=O)cs3)C(c3ccc(C)cc3)C2)cc1 (stereo not drawn)",
    "class_label": "0 (no)"
  },
  {
    "molecule": "COc1cc(C2CC(c3cc(OC)c(OC)c(OC)c3)=NN2C(C)=O)ccc1OCc1ccccc1 (stereo not drawn)",
    "class_label": "0 (no)"
  }
]

What is the recorded call for this molecule in the test? O=C(c1ccc(OCCN2CCOCC2)cc1)C1[C@H](c2ccc(Cl)cc2)[C@@H](c2ccccc2)NC12C(=O)Nc1ccc(Cl)cc12 (stereo partly drawn)
1 (yes)

What is the recorded call for this molecule in the test? C=C1CC[C@@H]2[C@]3(C)COC(c4cn[nH]c4-c4cccc(Br)c4)O[C@@H]3CC[C@@]2(C)[C@@H]1C/C=C1/C(=O)OCC1O (stereo partly drawn)
1 (yes)

What is the recorded call for this molecule in the test? `CC(=O)Nc1ccc(C(=O)NC(=S)Nc2ccc(S(N)(=O)=O)cc2)cc1`
0 (no)

What is the recorded call for this molecule in the test? `COc1ccc(C(=O)/C=C/c2ccccc2Cl)cc1S(N)(=O)=O`
0 (no)

What is the recorded call for this molecule in the test? `CCCSc1nc(NCCc2c[nH]c3ccccc23)c(C#N)c(-c2ccc(F)cc2)n1`
0 (no)
